Tested on: SNB-75 CNS
Assay: NCI-60 one-dose screen, 48 h (100 = growth as untreated, 0 = no growth, -100 = all killed)
Conditions: 10 µM unless noted
This is part of a sample that, as a whole, favours compounds with a hit. Of some 83,000 tested, about 20% had one in any assay.
Labelling: growth reported below 50% becomes Met; at or above becomes Not met.

Known results for compounds:
{"COMPOUND": "CCCCC[C@H](O)C/C=C1/C(=O)C=C[C@@H]1C/C=C\\CCCC(=O)OC", "ANSWER_LABEL": "Not met"}
{"COMPOUND": "CCOC(=O)c1c(C)nc2c(c1N)CC(=O)N2Cc1ccc(F)cc1", "ANSWER_LABEL": "Not met"}
{"COMPOUND": "NC[C@@H]1O[C@H](O[C@@H]2[C@@H](CO)OC(O[C@@H]3[C@@H](O)[C@H](N)C[C@H](N)[C@H]3OC3O[C@H](CN)[C@@H](O)[C@H](O)[C@H]3N)[C@@H]2O)[C@H](N)[C@@H](O)[C@@H]1O (stereo partly drawn)", "ANSWER_LABEL": "Not met"}
{"COMPOUND": "CCCCCCNC(=O)Oc1ccc(/C(=C(\\C)c2ccc(OC)cc2)c2ccc(OCCN3CCCCC3)cc2)cc1", "ANSWER_LABEL": "Not met"}
{"COMPOUND": "COc1ccc([C@H]2c3cc(OC)c(OC)cc3C=C(C=O)C2CO)cc1OC (stereo partly drawn)", "ANSWER_LABEL": "Met"}
{"COMPOUND": "COc1ccc2nc(NCCCNCCO)c3sc4ccc(F)cc4c(=O)c3c2c1", "ANSWER_LABEL": "Not met"}

Record CN(C(=O)NCc1cccc(F)c1Cl)[C@H](COC(=O)Nc1cc2ccccc2cn1)CC(O)CO (stereo partly drawn) : is its growth strictly below 50%?
Met

###

Tested on: DU-145 prostate
Assay: NCI-60 one-dose screen, 48 h (100 = growth as untreated, 0 = no growth, -100 = all killed)
Conditions: 10 µM unless noted
The panel holds about 83,000 compounds, 20% with a hit somewhere; the sample as a whole holds those more often.
Rule: growth below 40% gives class 1. Equal to or above 40% gives class 0.

These solved cases illustrate the format of a correct answer.
{"COMPOUND": "O=c1c2cc(F)ccc2sc2c(N3CCNCC3)nc3ccc(F)cc3c12", "ANSWER_LABEL": "class 1"}
{"COMPOUND": "COc1ccc(CN2c3ccccc3Sc3ccccc32)c(F)c1", "ANSWER_LABEL": "class 1"}
{"COMPOUND": "O=C(Cc1ccc(F)c(Cl)c1)Nc1cc(C2(C(F)(F)F)CC2)nn1CC1CCCCC1", "ANSWER_LABEL": "class 1"}

Dear colleague, could you confirm whether growth of O=C(Nc1c2ccccc2nc2ccccc12)c1ccccc1CN1C(=O)c2ccccc2C1=O falls below 40%? Thanks.
class 1

Is it true that growth reported for COc1cc2cc(Oc3ccc(NC(=O)Nc4cc(C(F)(F)F)cc(C(F)(F)F)c4)cc3)c(C)nc2cc1OCCN1CCOCC1 is less than 40%?
class 1

Please determine if O=C(N/N=C/[C@H](O)[C@H](O)[C@H](O)CO)c1ccc(NC(=O)c2cccnc2)cc1 is below 40% in terms of growth.
class 0

API: query returns whether the compound falls strictly under 40% in growth. Query: CCc1ccc(Oc2c(-c3ccc(OCc4ccc(Cl)cc4)cc3O)nn(C)c2C(F)(F)F)cc1
class 1

Given Cc1cccc2c3c(sc12)C(c1ccc(Cl)cc1)C(C#N)=C(N)O3 (configuration not stated) , is recorded growth strictly lower than 40%?
class 1

Confirm or reject: growth of CNCCCC12CCC(c3ccccc31)c1ccccc12 lies strictly below 40%
class 0

###

System: BT-549 breast
Experiment: NCI-60 one-dose screen, 48 h (100 = growth as untreated, 0 = no growth, -100 = all killed)
Conditions: 10 µM unless noted
This is part of a sample that, as a whole, favours compounds with a hit. Of some 83,000 tested, about 20% had one in any assay.
Entries and their growth values follow.
Reply with just the number (in %).

{"COMPOUND": "CC([C@H]1CCC2C3CCC4C[C@@H](NC=O)CC[C@]4(C)C3CC[C@@]21C)N(C)C (stereo partly drawn)", "TARGET_DESC": "BT-549 breast", "UOM": "%", "OBSERVED_VALUE": 30.7}
{"COMPOUND": "Cc1cccc2c3c(sc12)C(c1ccc(Cl)cc1)C(C#N)=C(/N=C/c1ccc(Cl)cc1)O3 (stereo not drawn)", "TARGET_DESC": "BT-549 breast", "UOM": "%", "OBSERVED_VALUE": 22.7}
{"COMPOUND": "COc1ccc(NC(=O)n2nc(/C=C\\c3ccc(O)c(OC)c3)cc2/C=C\\c2ccc(O)c(OC)c2)cc1", "TARGET_DESC": "BT-549 breast", "UOM": "%", "OBSERVED_VALUE": 31.4}
{"COMPOUND": "CC1=NN(c2ccc(S(=O)(=O)O)cc2)C(=O)C1N=Nc1ccc(-c2ccc(N=Nc3ccc(OS(=O)(=O)c4ccc(C)cc4)cc3)c(S(=O)(=O)O)c2)cc1 (stereo not drawn)", "TARGET_DESC": "BT-549 breast", "UOM": "%", "OBSERVED_VALUE": 68.4}

Please fill in: growth reported for N#C/C(=C\c1ccc(F)cc1)n1nc2cccc(F)c2n1 = 60.8

###

System: HS 578T breast
Assay: NCI-60 one-dose screen, 48 h
Conditions: 10 µM unless noted
Procedure: Growth inhibition of the HS 578T human tumor cell line is measured as a screen for anti-cancer activity. Cells are grown in 96 well plates and exposed to the test compound for 48 hours. Compounds are tested at a single concentration, which is 10^-5 M for most compounds. The reported endpoint is percent growth (GI% or GIPRCNT), where numbers from 0 - 100% represent growth inhibition, and numbers from -100% - 0 represent cell death. For example, a value of 40 represents 60% growth inhibition. […]
This is part of a sample that, as a whole, favours compounds with a hit. Of some 83,000 tested, about 20% had one in any assay. Activity calls are given as the source filed them. Rule for the calls: active = growth percent below 10; inactive = the rest.
Outcomes you can answer with include only these: active, inactive

{"COMPOUND": "COc1ccc(/C=C/c2c(C(=O)/C=C/c3ccc(Cl)cc3)c(C)nc3ccccc23)cc1", "TARGET_DESC": "HS 578T breast", "ANSWER_LABEL": "inactive"}
{"COMPOUND": "CCCCCCCCCCCCCCCCCCOc1ccccc1CC(=O)OCC[N+](CC)(CC)CC", "TARGET_DESC": "HS 578T breast", "ANSWER_LABEL": "inactive"}
{"COMPOUND": "Cc1cccc2c3c(sc12)C(c1ccc(Cl)cc1)C(C#N)=C(/N=C/c1ccc(Cl)cc1)O3 (stereo not given)", "TARGET_DESC": "HS 578T breast", "ANSWER_LABEL": "inactive"}
{"COMPOUND": "CCN(CC)Cc1cc(Nc2c3ccc(Cl)cc3nc3ccc(OC)cc23)ccc1O", "TARGET_DESC": "HS 578T breast", "ANSWER_LABEL": "inactive"}
{"COMPOUND": "COc1ccc(/C=C2\\Oc3cc(OCCN4CCC(Cc5ccccc5)CC4)ccc3C2=O)cc1OC", "TARGET_DESC": "HS 578T breast", "ANSWER_LABEL": "inactive"}

So what was the verdict on CS(=O)(=O)Nc1cc(-c2ccc3ncnc(Nc4cccc(Cl)c4F)c3c2)cnc1Cl in this test?
active

Please share the test call associated with Cc1cc(O)c(C2=NN(c3ccc(S(N)(=O)=O)cc3)C(/C=C/c3ccccc3)C2)cc1Cl (stereo not given) .
inactive

Hi team, can someone confirm the assay call for COc1ccc2c(c1)C(C)Cc1c(ncnc1-n1c(C)nc3ccccc31)N2C (stereo not given) ?
active

Tell me the assay call for CN1CCN(CC(=O)N2c3cccc4cccc(c34)N(C(=O)CN3CCN(C)CC3)C2c2cn(-c3ccccc3)nc2-c2cccc([N+](=O)[O-])c2)CC1 please.
inactive

Dear colleague, could you share the recorded outcome for COc1ccc(-c2nc3sc(-c4ccccc4)cn3n2)cc1 when you have a moment?
inactive

I would be grateful if you could indicate the recorded call for NCCNc1nc2ccccc2c2c(=O)c3cccc(F)c3sc12 .
inactive

Would you mind telling me which call this test gave CCOC(=O)CCN(C(=O)Nc1ccccc1)C1CCCCC1 ?
inactive

Per the assay record, what outcome was assigned to Nc1ccc(Sc2ccc([N+](=O)[O-])c3nonc23)cc1 ?
inactive

Look up the recorded call for COc1ccc(OC)c(/C=C2\Oc3cc(OCCN4CCC(Cc5ccccc5)CC4)ccc3C2=O)c1 in this test.
inactive

Test call for this compound, please: CN1CCN(c2ccc(-c3ccc4ncc(C#N)c(Nc5ccc(F)c(Cl)c5)c4c3)cn2)CC1
inactive
